Where do the numbers come from? From patent USRE47150.

TARGET DESC: T1, mouse tissue factor pathway inhibitor (TFPI) (mouse, UniProt O54819 29-289, limits assumed)
T1 construct: bought; also called mTFPI; murine TFPI
T1 sequence (looked up): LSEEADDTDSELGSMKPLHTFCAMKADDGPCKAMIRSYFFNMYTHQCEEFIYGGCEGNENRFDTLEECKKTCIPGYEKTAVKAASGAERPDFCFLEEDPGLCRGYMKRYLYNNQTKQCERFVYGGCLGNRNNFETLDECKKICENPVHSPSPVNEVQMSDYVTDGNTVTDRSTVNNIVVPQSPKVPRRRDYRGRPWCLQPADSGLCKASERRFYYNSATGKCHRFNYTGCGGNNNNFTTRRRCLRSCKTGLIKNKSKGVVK
PROTOCOL DESCRIPTION: SPR, TFPI immobilized
RESULT TYPE: kon (M⁻¹ s⁻¹)
One number for each entry, in M⁻¹ s⁻¹.

Quick one: give me kon for each item below, same order please.
1. gB9.7-IgG (4B7 HC N32D+G44S+K55Y+D62R+Y112D/LC S32R+N35I) (antibody, V domains shown, IgG format by its name) VH: QVQLQQSGPGLVKPSQTLSLTCAISGDSVSSDSAAWSWIRQSPSRGLEWLGIIYYRSKWYNRYAVSVKSRITINPDTSKNQFSLQLNSVTPEDTAVYYCARWHSDKHWGFDDWGQGTLVTVSS VL: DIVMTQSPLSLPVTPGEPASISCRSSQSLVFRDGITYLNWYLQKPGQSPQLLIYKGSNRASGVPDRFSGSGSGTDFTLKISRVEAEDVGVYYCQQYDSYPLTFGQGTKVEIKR
2. B32.5 (4B7 HC D62R+Y112D/LC D33F+N35I) (Fab, V domains shown) VH: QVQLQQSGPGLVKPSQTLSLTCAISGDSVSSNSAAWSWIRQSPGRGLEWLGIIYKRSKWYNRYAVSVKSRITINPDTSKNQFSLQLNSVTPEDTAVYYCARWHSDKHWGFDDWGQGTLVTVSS VL: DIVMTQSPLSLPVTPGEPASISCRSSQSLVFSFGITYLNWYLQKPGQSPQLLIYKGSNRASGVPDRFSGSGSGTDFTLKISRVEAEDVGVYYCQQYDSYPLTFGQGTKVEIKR

Reply text:
["2.7e+06", "4.52e+06"]
